Target: recombinant rat VEGF164 (rat) (UniProt P16612)
Experiment: Biacore SPR, VEGF immobilized, pH 5
Readout Kind: Kd (nM)

{"columns": ["Binder", "Meas Value"],
 "data": [
  ["578minmax FW1.4_DHP (scFv, tied by name only) scFv: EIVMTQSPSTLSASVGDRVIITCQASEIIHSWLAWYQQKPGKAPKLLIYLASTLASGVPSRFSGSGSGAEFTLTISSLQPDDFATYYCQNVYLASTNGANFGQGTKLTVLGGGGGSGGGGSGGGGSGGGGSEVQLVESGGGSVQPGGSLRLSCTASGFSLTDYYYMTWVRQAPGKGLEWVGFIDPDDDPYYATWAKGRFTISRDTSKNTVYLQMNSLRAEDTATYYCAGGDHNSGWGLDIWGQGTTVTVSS", 0.845]
]}
